Target: T1, Human Id1: Histidine (human, UniProt P41134 1-155, limits assumed)
T1 construct: Fusion protein made in E. coli from vector pGW07; also called h-Id1: his; not shown: His tag
T1 sequence (looked up): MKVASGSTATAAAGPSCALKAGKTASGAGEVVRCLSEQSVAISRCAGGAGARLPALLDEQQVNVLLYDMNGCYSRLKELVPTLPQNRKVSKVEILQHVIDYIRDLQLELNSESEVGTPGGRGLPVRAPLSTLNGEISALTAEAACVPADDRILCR
Experiment: ELISA, Ab 0.025 µg/ml
Please go through the items and note down their A450.
The reply should contain only the number, in A450.

**Q:** Reported A450, binder rabbit monoclonal anti-mouse/human Id3, clone #BCH-4/#6-1 (antibody, V domains shown, Rabbit IgG from a rabbit hybridoma; also called m/h Id3 MoAb 6-1) VH: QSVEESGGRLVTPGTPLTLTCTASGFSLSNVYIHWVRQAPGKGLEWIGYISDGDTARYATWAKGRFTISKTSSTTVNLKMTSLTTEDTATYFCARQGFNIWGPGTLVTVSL VL: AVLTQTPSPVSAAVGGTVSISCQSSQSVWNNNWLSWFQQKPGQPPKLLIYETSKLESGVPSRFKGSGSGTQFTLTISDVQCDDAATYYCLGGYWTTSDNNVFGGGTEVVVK : ____
**A:** 0.048

**Q:** Reported A450, binder rabbit monoclonal anti-mouse/human Id3, clone #BCH-4/#17-3 (antibody, V domains shown, Rabbit IgG from a rabbit hybridoma; also called m/h Id3 MoAb 17-3; BCH-3/#17-3) VH: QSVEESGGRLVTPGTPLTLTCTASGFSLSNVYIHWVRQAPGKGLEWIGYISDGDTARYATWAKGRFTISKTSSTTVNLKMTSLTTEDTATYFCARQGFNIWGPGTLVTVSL VL: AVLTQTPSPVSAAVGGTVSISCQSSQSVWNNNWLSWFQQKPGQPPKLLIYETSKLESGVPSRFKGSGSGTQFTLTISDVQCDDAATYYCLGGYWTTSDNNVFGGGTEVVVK : ____
**A:** 0.047

**Q:** Reported A450, binder rabbit monoclonal anti-human Id3, clone #BCH-4/#3-3 (antibody, V domains shown, Rabbit IgG from a rabbit hybridoma; also called h Id3 MoAb 3-3) VH: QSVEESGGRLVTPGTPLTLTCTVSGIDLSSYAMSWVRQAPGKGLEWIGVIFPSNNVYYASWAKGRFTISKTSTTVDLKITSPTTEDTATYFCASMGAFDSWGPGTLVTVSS VL: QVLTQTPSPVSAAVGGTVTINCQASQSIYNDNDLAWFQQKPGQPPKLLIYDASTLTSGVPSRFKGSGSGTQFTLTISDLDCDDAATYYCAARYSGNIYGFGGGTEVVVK : ____
**A:** 0.049

**Q:** Reported A450, binder rabbit monoclonal anti-mouse/human Id3, clone #BCH-4/#16-1 (antibody, V domains shown, Rabbit IgG from a rabbit hybridoma; also called m/h Id3 MoAb 16-1) VH: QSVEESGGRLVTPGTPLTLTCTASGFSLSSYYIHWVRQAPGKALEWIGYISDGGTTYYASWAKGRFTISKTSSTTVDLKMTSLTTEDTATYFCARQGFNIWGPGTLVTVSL VL: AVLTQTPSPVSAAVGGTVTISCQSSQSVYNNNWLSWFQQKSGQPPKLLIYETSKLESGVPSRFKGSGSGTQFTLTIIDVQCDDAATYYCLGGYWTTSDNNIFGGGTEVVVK : ____
**A:** 0.046
